# EXPERIMENTAL SYSTEM: full-length beta-Catenin (Uniprot ID P35222) (Homo sapiens (Human)) (UniProt P35222)
# Sequence (P35222 whole entry, the tested form may be a part): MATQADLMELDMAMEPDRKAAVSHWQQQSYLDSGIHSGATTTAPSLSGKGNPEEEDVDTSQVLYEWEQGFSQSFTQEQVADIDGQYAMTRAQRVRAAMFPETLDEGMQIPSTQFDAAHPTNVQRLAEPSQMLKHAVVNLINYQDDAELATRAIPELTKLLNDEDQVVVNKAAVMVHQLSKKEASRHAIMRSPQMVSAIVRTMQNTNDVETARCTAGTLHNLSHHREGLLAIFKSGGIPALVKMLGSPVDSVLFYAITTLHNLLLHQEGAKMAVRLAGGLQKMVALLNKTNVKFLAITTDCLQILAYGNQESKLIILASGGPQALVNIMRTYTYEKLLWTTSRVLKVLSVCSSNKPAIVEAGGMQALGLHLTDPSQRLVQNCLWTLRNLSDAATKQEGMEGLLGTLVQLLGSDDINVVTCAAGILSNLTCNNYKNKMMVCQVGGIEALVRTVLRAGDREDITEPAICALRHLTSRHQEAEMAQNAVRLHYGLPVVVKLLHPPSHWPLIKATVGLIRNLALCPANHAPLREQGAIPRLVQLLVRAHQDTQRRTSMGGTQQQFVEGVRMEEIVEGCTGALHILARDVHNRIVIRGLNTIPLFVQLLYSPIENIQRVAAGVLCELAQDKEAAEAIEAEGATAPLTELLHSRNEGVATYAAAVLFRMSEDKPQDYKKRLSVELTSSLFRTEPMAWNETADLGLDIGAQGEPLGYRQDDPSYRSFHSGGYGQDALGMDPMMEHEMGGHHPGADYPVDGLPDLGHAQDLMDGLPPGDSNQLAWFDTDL
# MEASUREMENT NOTES: fluorescence polarization competition; full-length beta-catenin with 5FAM-labeled TCF4 residues 10-53 probe as competitor
Starred links: 1 amine or outer side, 2 acyl side, 3 side chain; linkers in the order of their positions; H or OH if unused. Positions of bridges follow the written chain, without caps; N, C: chain ends. Non-standard residues stand in square brackets, D forms with d. Primed or numbered codes have the meaning given here. B5(5) = 2,2-bis(4-pentenyl)glycine, 2-amino-2-(pent-4-en-1-yl)hept-6-enoic acid (stitching residue), C=CCCCC(CCCC=C)(N[*:1])C(=O)[*:2]; B5(3) = 2,2-bis(4-pentenyl)glycine (stitching residue), C=CCCCC(CCCC=C)(N[*:1])C(=O)[*:2]; B5 = 2-amino-2-(pent-4-en-1-yl)hept-6-enoic acid, C=CCCCC(CCCC=C)(N[*:1])C(=O)[*:2]; Bta = N[C@@H](Cc1csc2ccccc12)C(=O)O; αAllylPro = C=CC[C@@]1(C(=O)O)CCCN1; tBuAla = CC(C)(C)C[C@H](N)C(=O)O; 3Thi = N[C@@H](Cc1ccsc1)C(=O)O; S8 = C=CCCCCCC[C@](C)(N)C(=O)O; Phg = N[C@H](C(=O)O)c1ccccc1; Aib = CC(C)(N)C(=O)O
MEASUREMENT KIND: pEC50
The meaning of pEC50 here: minus log10 of the concentration in molar units.

Ac-[αAllylPro]DI[B5]DEAAFN[S8][3Thi][Bta]-NH2 (staple 1-4, 4-11) [I-720] = 7.12
Ac-[αAllylPro]DI[B5]DEAA[Phg]Q[S8]F[Bta]Q-NH2 (staple 1-4, 4-11) [I-726] = 5.30
Ac-[αAllylPro]DL[B5(5)]DEAAFN[S8]F[Bta]Q[Aib]-NH2 (staple 1-4, 4-11; also: later-eluting staple isomer) [I-737] = 6.45
Ac-[αAllylPro]DL[B5]DEAAFN[S8][3Thi][Bta]-NH2 (staple 1-4, 4-11) [I-716] = 7.04

In: // lookup pEC50 for Ac-[αAllylPro]D[tBuAla][B5(3)]DEAAFN[S8]F[Bta]-NH2 (staple 1-4, 4-11) [I-713]
Out: 7.15
